# Measurement Notes: protein stability index of a GFP-peptide fusion (yeast GPS) (PSI 1-4); higher = more stable; sorted into four equal gates, so the index is relative within each strain
# Condition Set: san1∆
# label = condition met if protein stability index >= 3 else condition not met

- Sequence Record: "EKIMILLVPLALLTKRL [CSN12]"
  Class: "condition not met"
- Sequence Record: "HLALEIGEVYNDQVEKD [RPN1]"
  Class: "condition met"
- Sequence Record: "VMPVPNVRSSVLQKVIE [SKP1]"
  Class: "condition not met"
- Sequence Record: "HKVQTKLTRELEKKFQD [RPS7A]"
  Class: "condition not met"
- Sequence Record: "AFGEFSLEGCVEMAWIM [FAS2]"
  Class: "condition not met"
- Sequence Record: "SEETQFKYVEDRFPLKL [ITC1]"
  Class: "condition met"
- Sequence Record: "GNPVNDANLLGAEVLIK [COR1]"
  Class: "condition not met"
- Sequence Record: "NNLEPRQTTSNTGLLNK [RPN11]"
  Class: "condition met"
- Sequence Record: "RLAKSTENEIPNLIEKM [BRR2]"
  Class: "condition not met"
- Sequence Record: "TFAVILFLIIQCYKIYD [YMR129W/POM152]"
  Class: "condition not met"
- Sequence Record: "VLPIFTTVFFSRQKSGL [YML031W/NDC1]"
  Class: "condition not met"
- Sequence Record: "KFHKREVVEAVTVVDTP [RPL3]"
  Class: "condition not met"
- Sequence Record: "SMERKVQGAAPWDTSLE [MCD1]"
  Class: "condition met"
- Sequence Record: "QSDLEIITQYVFESLEI [ARP9]"
  Class: "condition not met"

====

# Measurement Notes: protein stability index of a GFP-peptide fusion (yeast GPS) (PSI 1-4); higher = more stable; sorted into four equal gates, so the index is relative within each strain
# Condition Set: ubr1∆

- Sequence Record: "SEEKIRDYSKEILGINL [SIR4]"
  protein stability index: 3.06
- Sequence Record: "EEAKEESDDDMGFGLFD [RPP1A]"
  protein stability index: 3.26
- Sequence Record: "ATIIGIISTAIADSTHV [ECM29]"
  protein stability index: 1.51
- Sequence Record: "RAASIRARVKAFPKDDR [RPL3]"
  protein stability index: 1.5
- Sequence Record: "EEQKSSDTSKPAFTFGA [YJL041W/NSP1]"
  protein stability index: 3.23
- Sequence Record: "FGKLAFPTRLGQGYRKV [YJL039C/NUP192]"
  protein stability index: 1.62
- Sequence Record: "QFEWHQNSLLTNTHPNF [SNF2]"
  protein stability index: 2.99
- Sequence Record: "IVGPDLAVLALVIVKKG [RPS6A]"
  protein stability index: 1.36
- Sequence Record: "DKYHEQWIKFLLHTLYL [SSN8]"
  protein stability index: 2.43
- Sequence Record: "KTKAMVPPINCIFNFLQ [SME1]"
  protein stability index: 2.12
- Sequence Record: "LKIFEGIPPPYDKKKRV [RPL16B]"
  protein stability index: 1.51
- Sequence Record: "ILDSLPSVIHSSVEMLL [YDL116W/NUP84]"
  protein stability index: 1.44
- Sequence Record: "EPPLSYEQHIENIEPLD [PRP8]"
  protein stability index: 3.03
- Sequence Record: "VPPILIILPLDNATLTE [SSN2]"
  protein stability index: 2.51
- Sequence Record: "RKVEKEKNEKEREIKRR [UBP6]"
  protein stability index: 3.17
- Sequence Record: "YQWNLDGLQQLDKYLYV [RPN1]"
  protein stability index: 2.2
- Sequence Record: "MANLSQIYTQRAYMRPL [SCL1]"
  protein stability index: 1.54
- Sequence Record: "NGAGGLMYATDWQMMTS [CSL4]"
  protein stability index: 2.99
- Sequence Record: "NNTTTTSTKPSFSFGAP [YOR098C/NUP1]"
  protein stability index: 3.01
- Sequence Record: "LERLTLVFCKHITSVPI [GRR1]"
  protein stability index: 1.44
- Sequence Record: "NQSAYEWNGKSFQKKSN [ISW2]"
  protein stability index: 2.99
- Sequence Record: "MAREHAPSIIFMDEIDS [RPT6]"
  protein stability index: 2.42
- Sequence Record: "AFFTYDAGVTFNKEQLN [ECM29]"
  protein stability index: 2.58

====

# Measurement Notes: protein stability index of a GFP-peptide fusion (yeast GPS) (PSI 1-4); higher = more stable; sorted into four equal gates, so the index is relative within each strain
# Condition Set: pdr5∆
Reported Metric: protein stability index

- Sequence Record: "GIDLAYNMYDAYGNWFN [PRP8]"
  Reported Metric: "protein stability index"
  Reported Measurement: 3.08
- Sequence Record: "LSLVYEIGGSDLKESMV [ECM29]"
  Reported Metric: "protein stability index"
  Reported Measurement: 3.32
- Sequence Record: "YVDTATAKRKSRKRKPK [IRR1]"
  Reported Metric: "protein stability index"
  Reported Measurement: 3.32
- Sequence Record: "KSDEAKWKPVLSHIVYF [RPN5]"
  Reported Metric: "protein stability index"
  Reported Measurement: 2.21
- Sequence Record: "SNMLGSNEDVMMTGAEQ [RPB3]"
  Reported Metric: "protein stability index"
  Reported Measurement: 3.35
- Sequence Record: "FGWLLSDNSVSVRLQVT [IRR1]"
  Reported Metric: "protein stability index"
  Reported Measurement: 1.32
- Sequence Record: "IVPIFQLISAVLVSMGS [YJL039C/NUP192]"
  Reported Metric: "protein stability index"
  Reported Measurement: 2.39
- Sequence Record: "LVHDVVYDFYGRHVATC [YGL100W/SEH1]"
  Reported Metric: "protein stability index"
  Reported Measurement: 1.69
- Sequence Record: "LITSEMFDAFVSFYFED [SIN4]"
  Reported Metric: "protein stability index"
  Reported Measurement: 2.59
- Sequence Record: "SLAATYSMISLQNCCII [ARP9]"
  Reported Metric: "protein stability index"
  Reported Measurement: 1.33
- Sequence Record: "TVEGISKLLREHGYQSR [RPB2]"
  Reported Metric: "protein stability index"
  Reported Measurement: 2.97
- Sequence Record: "VKQYNKKWPQFYAAVQK [SIN4]"
  Reported Metric: "protein stability index"
  Reported Measurement: 1.93
- Sequence Record: "NQQPQQQQQQQQNPKFL [SWI1]"
  Reported Metric: "protein stability index"
  Reported Measurement: 3.02
- Sequence Record: "DEGKEIPATIFDKVIYH [TAF14]"
  Reported Metric: "protein stability index"
  Reported Measurement: 3.14
- Sequence Record: "EFISIYSNSHQMAVHIA [RET1]"
  Reported Metric: "protein stability index"
  Reported Measurement: 3.45
- Sequence Record: "DMKEYDSDKGSKLNELK [SMC2]"
  Reported Metric: "protein stability index"
  Reported Measurement: 3.28
- Sequence Record: "GKTSFFQALGVPTKIAR [RPP0]"
  Reported Metric: "protein stability index"
  Reported Measurement: 3.29
- Sequence Record: "SASFSLKNGDKPHLLKF [RPL6B]"
  Reported Metric: "protein stability index"
  Reported Measurement: 2.42
- Sequence Record: "LNLKFKEKWPSLELQSF [YML103C/NUP188]"
  Reported Metric: "protein stability index"
  Reported Measurement: 2.54

====

# Measurement Notes: protein stability index of a GFP-peptide fusion (yeast GPS) (PSI 1-4); higher = more stable; sorted into four equal gates, so the index is relative within each strain
# Condition Set: ubr1∆

- Sequence Record: "GVNELAPIPKGRVKYTK [POP1]"
  protein stability index: 2.67
- Sequence Record: "NLRLKILTIIEEYKKSL [GRR1]"
  protein stability index: 1.61
- Sequence Record: "PANAEPQAVTITSIMDD [ITC1]"
  protein stability index: 3.02
- Sequence Record: "YIEASGREGIWSKTIKA [RPC34]"
  protein stability index: 2.42
- Sequence Record: "MIIDEGHRMKNAQSKLS [SNF2]"
  protein stability index: 1.93
- Sequence Record: "AGSTGFSFGQNNNNTNT [YGR119C/NUP57]"
  protein stability index: 2.32
- Sequence Record: "RLAKSTENEIPNLIEKM [BRR2]"
  protein stability index: 1.68
- Sequence Record: "SNNSTTNTFGSNSAGTS [YJL041W/NSP1]"
  protein stability index: 3.05
- Sequence Record: "ESMSYLPDPILKNFLSY [MCD1]"
  protein stability index: 2.51

====

# Measurement Notes: protein stability index of a GFP-peptide fusion (yeast GPS) (PSI 1-4); higher = more stable; sorted into four equal gates, so the index is relative within each strain
# Condition Set: ubr1∆
Reported Metric: protein stability index

- Sequence Record: "SLPHFPKNSKTPQSKGF [RPO31]"
  Reported Measurement: 2.98
- Sequence Record: "HDKNIQKLLKQLDSDAN [ISW2]"
  Reported Measurement: 2.93
- Sequence Record: "QVPDSLDDQIFVCEKSI [RPN6]"
  Reported Measurement: 2.92
- Sequence Record: "MANDLVQARDNSQVFGV [RPS14B]"
  Reported Measurement: 2.97
- Sequence Record: "SPELSLQRHLSLGIRPC [RRP43]"
  Reported Measurement: 3.06
- Sequence Record: "QETEGTNRHTLALETVL [SIR3]"
  Reported Measurement: 2.83
- Sequence Record: "ENSIGYNNRKCWPKDSR [PRP8]"
  Reported Measurement: 2.87
- Sequence Record: "NYGMIAINPGRVAASFS [FAS1]"
  Reported Measurement: 1.81
- Sequence Record: "QFEVSDDEKNDKQARKQ [SNF2]"
  Reported Measurement: 3.29
- Sequence Record: "DTRITPSKVSKIDSHVV [PRE6]"
  Reported Measurement: 2.72
- Sequence Record: "KTRVGSVTAQVYKIALR [RPC82]"
  Reported Measurement: 1.15
- Sequence Record: "NECQRLQNIVMDCTKEE [YIL149C/MLP2]"
  Reported Measurement: 3.4
- Sequence Record: "KGRNNESNNKKYPIFTG [YDL088C/ASM4]"
  Reported Measurement: 2.9
- Sequence Record: "SRTDAVRCKDCGHRILL [RPC10]"
  Reported Measurement: 3.02
- Sequence Record: "YTPEESAWIWPMDEETK [RPC25]"
  Reported Measurement: 2.65
- Sequence Record: "KREKRVFLKHSLSIKLA [RPN6]"
  Reported Measurement: 2.81
- Sequence Record: "MAHFKEYQVIGRRLPTE [RPL20A]"
  Reported Measurement: 2.4
- Sequence Record: "LDKVINKELPINHTILG [RPN8]"
  Reported Measurement: 2.4
- Sequence Record: "TLNPKTGHLFLKIIHTS [PRP8]"
  Reported Measurement: 1.84
- Sequence Record: "CMEVASAFMKFSKAIEW [BRR2]"
  Reported Measurement: 1.98
- Sequence Record: "AQDEEIHKQIVIEMKRC [UBP6]"
  Reported Measurement: 3.2
- Sequence Record: "KDDRFVPVRKFKGNNGV [RPN2]"
  Reported Measurement: 2.28
- Sequence Record: "IVPVISTIENVLFYIGR [COB]"
  Reported Measurement: 2.34
- Sequence Record: "ALKGPVRDKLDEYQAAV [DPB4]"
  Reported Measurement: 3.17
- Sequence Record: "KDNDKNLKFLKNKDSLV [SRB4]"
  Reported Measurement: 3.34
- Sequence Record: "LEESDVEDTLHVNKRKR [YOR098C/NUP1]"
  Reported Measurement: 2.91
- Sequence Record: "LNRQNDITDGKDYHTLA [RPS18A]"
  Reported Measurement: 3.11
- Sequence Record: "PFNKPNIETGENHNGQS [SWI3]"
  Reported Measurement: 2.78
- Sequence Record: "NDQDMFTIVSLVQLKKF [YML103C/NUP188]"
  Reported Measurement: 2.04
- Sequence Record: "FDTSIKLDIISDPESER [RPN14]"
  Reported Measurement: 2.9
- Sequence Record: "DPKFVNSLLAKLKDSKK [YML103C/NUP188]"
  Reported Measurement: 2.54
- Sequence Record: "KVSKNSTSFKNPRRLEI [YMR153W/NUP53]"
  Reported Measurement: 2.71
- Sequence Record: "IDHINEESWEKVVEFAI [SCL1]"
  Reported Measurement: 2.91
- Sequence Record: "YTETDPAKVAEEGINKF [SRP54]"
  Reported Measurement: 3.04
- Sequence Record: "DRGLSIKLNGSTLLCTD [SNU114]"
  Reported Measurement: 3
- Sequence Record: "GKGDNDNGLGPLKYAPH [SWI3]"
  Reported Measurement: 2.7
- Sequence Record: "QGGNNELGTAVGKLFRV [RPL30]"
  Reported Measurement: 2.84
- Sequence Record: "ANLLFKKEKLKQENSTL [RPC82]"
  Reported Measurement: 1.93
- Sequence Record: "AVTEATSTNGDSENNEE [RGR1]"
  Reported Measurement: 3.08
- Sequence Record: "RMPMDFKGVIVKIVDKD [PRE1]"
  Reported Measurement: 2.37
- Sequence Record: "DFLRKATAFNKTRGPFH [RPL16A]"
  Reported Measurement: 3.03
- Sequence Record: "GSSASSRKAHGLNAKQL [POP1]"
  Reported Measurement: 3.04
- Sequence Record: "ITQIVEKDFCTSCLQNN [SRB8]"
  Reported Measurement: 2.28
- Sequence Record: "RFELHGDMTNSDAQSNL [REC8]"
  Reported Measurement: 3.22
- Sequence Record: "VQDKDTLSNAERAKNVN [GAL11]"
  Reported Measurement: 2.91
- Sequence Record: "KFHKREVVEAVTVVDTP [RPL3]"
  Reported Measurement: 1.45
- Sequence Record: "LEEKKKRPNNKTLEKLE [IRR1]"
  Reported Measurement: 3.27
- Sequence Record: "QSALSQIIRLFYSKNRL [ISW2]"
  Reported Measurement: 2.61

Data provenance is the supplement of paper PMC9732359.
